// reported ΔBRET for each item listed
Target: T1, HiBiT-tagged human FZD4 (human, UniProt Q9ULV1 37-537)
T1 construct: the receptor's own signal peptide is probably replaced; also called HiBiT-FZD4; WT FZD4; source: HEK293A, transiently transfected, on live cells; not shown: HiBiT, N-terminal, kept
T1 sequence (looked up): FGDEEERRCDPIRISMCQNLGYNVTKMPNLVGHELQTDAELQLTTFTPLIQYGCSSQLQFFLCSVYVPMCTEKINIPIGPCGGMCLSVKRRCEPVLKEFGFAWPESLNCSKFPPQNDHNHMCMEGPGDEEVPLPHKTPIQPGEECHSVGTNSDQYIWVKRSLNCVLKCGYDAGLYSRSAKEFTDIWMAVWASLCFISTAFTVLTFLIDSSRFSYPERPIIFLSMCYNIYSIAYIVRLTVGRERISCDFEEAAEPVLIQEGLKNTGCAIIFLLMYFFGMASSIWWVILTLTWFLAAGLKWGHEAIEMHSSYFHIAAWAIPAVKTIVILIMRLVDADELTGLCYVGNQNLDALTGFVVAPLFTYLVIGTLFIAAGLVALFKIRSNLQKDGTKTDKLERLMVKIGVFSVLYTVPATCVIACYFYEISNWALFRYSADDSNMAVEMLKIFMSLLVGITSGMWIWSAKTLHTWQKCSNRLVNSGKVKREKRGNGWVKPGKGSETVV
Experiment: FRET or BRET; NanoBiT/BRET competition binding on live HEK293A cells with HiBiT-FZD4: 30 min preincubation with purified untagged WNT at 37 °C, then eGFP-WNT-3A to 0.4 nM for 240 min, then LgBiT and furimazine; pKi by Cheng-Prusoff
Conditions: one partner purified
When you answer, write just the number.

In: Identify measured ΔBRET corresponding to untagged human WNT-3A (ligand, UniProt P56704 19-352, looked up, WNT-3A, human, untagged recombinant protein; source: bought: RnD Systems/Biotechne, purified) SYPIWWSLAVGPQYSSLGSQPILCASIPGLVPKQLRFCRNYVEIMPSVAEGIKIGIQECQHQFRGRRWNCTTVHDSLAIFGPVLDKATRESAFVHAIASAGVAFAVTRSCAEGTAAICGCSSRHQGSPGKGWKWGGCSEDIEFGGMVSREFADARENRPDARSAMNRHNNEAGRQAIASHMHLKCKCHGLSGSCEVKTCWWSQPDFRAIGDFLKDKYDSASEMVVEKHRESRGWVETLRPRYTYFKVPTERDLVYYEASPNFCEPNPETGSFGTRDRTCNVSSHGIDGCDLLCCGRGHNARAERRREKCRCVFHWCCYVSCQECTRVYDVHTCK
Out: -0.002

In: Return ΔBRET for the following binder: untagged human WNT-5B (ligand, UniProt Q9H1J7 18-359, looked up, WNT-5B, human, untagged recombinant protein; source: bought: RnD Systems/Biotechne, purified) QLLTDANSWWSLALNPVQRPEMFIIGAQPVCSQLPGLSPGQRKLCQLYQEHMAYIGEGAKTGIKECQHQFRQRRWNCSTADNASVFGRVMQIGSRETAFTHAVSAAGVVNAISRACREGELSTCGCSRTARPKDLPRDWLWGGCGDNVEYGYRFAKEFVDAREREKNFAKGSEEQGRVLMNLQNNEAGRRAVYKMADVACKCHGVSGSCSLKTCWLQLAEFRKVGDRLKEKYDSAAAMRVTRKGRLELVNSRFTQPTPEDLVYVDPSPDYCLRNESTGSLGTQGRLCNKTSEGMDGCELMCCGRGYNQFKSVQVERCHCKFHWCCFVRCKKCTEIVDQYICK
Out: -0.004

***
In: Return ΔBRET for the following binder: untagged human/mouse WNT-5A (ligand, UniProt P41221 62-380, looked up, WNT-5A, printed as human/mouse, untagged recombinant protein; human WNT-5A is P41221; source: bought: RnD Systems/Biotechne, purified) IIGAQPLCSQLAGLSQGQKKLCHLYQDHMQYIGEGAKTGIKECQYQFRHRRWNCSTVDNTSVFGRVMQIGSRETAFTYAVSAAGVVNAMSRACREGELSTCGCSRAARPKDLPRDWLWGGCGDNIDYGYRFAKEFVDARERERIHAKGSYESARILMNLHNNEAGRRTVYNLADVACKCHGVSGSCSLKTCWLQLADFRKVGDALKEKYDSAAAMRLNSRGKLVQVNSRFNSPTTQDLVYIDPSPDYCVRNESTGSLGTQGRLCNKTSEGMDGCELMCCGRGYDQFKTVQTERCHCKFHWCCYVKCKKCTEIVDQFVCK
Out: -0.004
